Assay: VP16 transactivation reporter inhibitors, counter-screen for LRH-1 inverse agonist project, cell-based, luminescence, high throughput (AID 651615)
Details: Gal4-VP16 luciferase reporter cells, at 3.6 µM, hits give high values
The source made the active and inactive calls. No stated cut-off is given here; in the data, active means inhibition above about 33%; inactive means the rest.

{"columns": ["compound", "inhibition"],
 "data": [
  ["COc1ccc(OC)c(NC(=S)NCc2cccnc2)c1", "0.37% (inactive)"],
  ["CCCN(CC)c1ncnc2[nH]ncc12", "69.2% (active)"],
  ["Cc1cc(C(=O)CN2C(=O)c3ccccc3S2(=O)=O)c(C)n1CC1CCCO1 (configuration not stated)", "68.2% (active)"],
  ["O=C(NC(Nc1nc2ccc([N+](=O)[O-])cc2s1)(C(F)(F)F)C(F)(F)F)c1ccccc1", "86.8% (active)"],
  ["COc1ccc(C(=O)OCC(=O)Nc2ccc(N3CCOCC3)cc2)cc1OC", "-1.85% (inactive)"],
  ["CCN(CC)c1ccc(C(NC(=O)C(C)C)c2ccc3cccnc3c2O)cc1 (configuration not stated)", "84.9% (active)"],
  ["O=C(Nc1ccc([N+](=O)[O-])cc1)c1ccc(Cn2cc([N+](=O)[O-])cn2)cc1", "74.4% (active)"]
]}

---

Target: Steroidogenic factor 1 (Homo sapiens) (UniProt Q13285)
Sequence (Q13285 whole entry, looked up): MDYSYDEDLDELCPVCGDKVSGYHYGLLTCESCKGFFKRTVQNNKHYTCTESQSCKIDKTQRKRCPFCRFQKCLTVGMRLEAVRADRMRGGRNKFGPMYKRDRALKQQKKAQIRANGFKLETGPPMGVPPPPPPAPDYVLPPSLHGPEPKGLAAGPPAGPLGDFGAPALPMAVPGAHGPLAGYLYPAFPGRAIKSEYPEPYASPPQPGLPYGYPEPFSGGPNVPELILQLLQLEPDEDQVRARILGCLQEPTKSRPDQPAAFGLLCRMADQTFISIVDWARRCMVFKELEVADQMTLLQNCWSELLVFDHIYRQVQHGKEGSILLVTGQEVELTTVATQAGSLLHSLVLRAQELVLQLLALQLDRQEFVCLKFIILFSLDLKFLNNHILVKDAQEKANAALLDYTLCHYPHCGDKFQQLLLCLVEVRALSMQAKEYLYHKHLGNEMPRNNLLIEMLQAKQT
Assay: SF1 (NR5A1) inverse agonists, counter-screen for LRH-1 inverse agonist project, cell-based, luminescence, high throughput (AID 651614);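 further: cells cotransfected with StAR promoter reporter and SF1 expression vector; 0% = vehicle on cells with receptor and 100% = vehicle on cells lacking receptor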
Conditions: cell-based SF1 luciferase reporter, at 3.6 µM, hits give high values
Tag: Met if measured inhibition is not below 50%, Not met if it is.

{"columns": ["compound", "class_label"],
 "data": [
  ["CCCc1nnc2n1N=C(c1ccc(OC)c(OC)c1)CS2", "Not met"],
  ["COc1ccc(Nc2nc(Nc3ccc(OC)cc3)nc(SC3=NCCS3)n2)cc1", "Met"],
  ["CCOc1ccc(CCNC(=O)COC(=O)CCc2cc(OC)c(OC)c(OC)c2)cc1OCC", "Not met"],
  ["Cc1no[n+]([O-])c1COc1ccc(/C=N/n2nnnc2N)cc1", "Not met"],
  ["COc1cc2cc(C(=O)NC(C)c3cccc4ccccc34)c(N)nc2cc1OC (stereo not drawn)", "Met"],
  ["COc1cccc(/C=N/NC(=O)c2ccc(-c3ccccc3)cc2)c1O", "Not met"],
  ["CC1OC2CC(=O)OC2C2=C1C(=O)c1c(O)cccc1C2=O (stereo not drawn)", "Met"],
  ["Cc1ccc(-c2nc(-c3ccccn3)no2)cc1", "Met"],
  ["CN(C)c1cc[n+](Cc2c(Cl)cccc2Cl)cc1", "Met"],
  ["COc1ccc(-c2sc(C(=O)c3ccc(Cl)cc3Cl)cc2CC(=O)O)cc1", "Not met"],
  ["O=C(Nc1ccc(N2CCN(C(=O)c3cccs3)CC2)cc1)c1ccc([N+](=O)[O-])o1", "Met"],
  ["c1ccc(CNc2nc(-c3ccccn3)nc3ccccc23)cc1", "Met"]
]}

---

Below, each entry is listed alongside its reported inhibition.
Molecular target: Nuclear receptor coactivator 1 (Homo sapiens)
Test: SRC1 coactivator transcriptional activity inhibitors, confirmation, cell-based, luminescence, quadruplicate (AID 588820);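 further: 0% = DMSO wells and 100% = gossypol 36 µM treated wells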
Settings: HEK293 GAL4-SRC1 luciferase reporter, at 3.6 µM, hits give high values

{"columns": ["molecule", "output_unit", "inhibition"],
 "data": [
  ["Cc1ccc(N(Cc2cc(=O)[nH]c3ccccc23)C(=O)CCl)c(C)c1", "%", 34.3],
  ["COc1cc(OC)c(NS(=O)(=O)c2ccc(Cl)c(C(=O)OC(C)C(=O)N3CCCC3)c2)cc1Cl (centres undefined)", "%", -10.2],
  ["O=C(Nc1cccc2c1CCCC2)c1cc([N+](=O)[O-])ccc1Cl", "%", 19],
  ["COc1ccc(CCn2c(-c3ccco3)nc3ccccc3c2=O)cc1OC", "%", -30.6],
  ["Cc1ccc(C2C3=C(CC(C)(C)CC3=O)OC3=C2C(=O)CC(C)(C)C3)cc1", "%", 0],
  ["C/C(=N\\NC(=O)c1nnn(-c2nonc2N)c1-c1ccccc1)c1ccccc1O", "%", 60.8],
  ["CCN(CC)CCNc1ccc(C)c2sc3ccc(O)cc3c(=O)c12", "%", 50],
  ["CCN(CC)c1ccc(/C=N/NC(=O)c2nnn(-c3nonc3N)c2C(C)C)c(O)c1", "%", 68.7],
  ["CN(C)CCNc1ccc(CO)c2sc3ccc(O)cc3c(=O)c12", "%", 44.8],
  ["Cc1ccc(S(=O)(=O)CC2CSc3nc4ccccc4n32)cc1 (centres undefined)", "%", -13.8],
  ["COc1ccc(/C=N/NC(=S)Nc2ccccc2[N+](=O)[O-])cc1O", "%", -91.8],
  ["Cc1cn(Cc2ccccc2Cn2cc(C)c(=O)[nH]c2=O)c(=O)[nH]c1=O", "%", -23.2],
  ["N#CCCN(C(=O)COC(=O)c1ccc2c(=O)n3c(nc2c1)CCC3)c1ccc(F)cc1", "%", -14.7],
  ["CCN(CC)c1ccc2nc3ccc(N)cc3[n+](-c3ccccc3)c2c1", "%", 52.3],
  ["COc1ccccc1C(=O)N(Cc1ccc(C)o1)C1CCS(=O)(=O)C1 (centres undefined)", "%", -7.5],
  ["O=C(N/N=C/c1sc(N2CCOCC2)nc1-c1ccccc1)c1cccc(S(=O)(=O)N2CCOCC2)c1", "%", 43.6],
  ["Cc1ccc(C)c(NC(=O)CCc2ccc(C)o2)c1", "%", 5.55],
  ["COc1ccc(-n2c(NNC(C)=O)nc3sc4c(c3c2=O)CCCC4)cc1", "%", 23.4],
  ["COc1ccc(-c2noc(CCCCC(=O)N3CCN(c4cc(C)ccc4C)CC3)n2)cc1", "%", -26]
]}

---

Assay: VP16 transactivation reporter inhibitors, counter-screen for LRH-1 inverse agonist project, cell-based, luminescence, high throughput (AID 651615)
Conditions: Gal4-VP16 luciferase reporter cells, at 3.6 µM, hits give high values

{"columns": ["compound", "inhibition, %"],
 "data": [
  ["O=C(NCCN1C(=O)S/C(=C\\c2ccc(OC(F)F)cc2)C1=O)c1cnccn1", 14.9],
  ["Cc1ccc(CNC(=O)c2ccc([N+](=O)[O-])o2)cc1", -5.02],
  ["CCOc1ccc(S(=O)(=O)Nc2cc(OC)ccc2OC)cc1", 22.6],
  ["CN(C)CCNc1ccc(CO)c2sc3ccc(O)cc3c(=O)c12", 61.2],
  ["CC(C)(C)C(=O)Nc1ccc(NC(=O)c2ccco2)nc1", 36.7],
  ["CCN(CC)C(=O)CSc1nc2ccc(NC(=O)CSc3nccn3C)cc2s1", -9.75],
  ["COc1ccccc1-c1cc(NC=O)c2ncc(-c3ccc(S(C)(=O)=O)cc3)n2c1", -33.2],
  ["Cc1ccccc1C(=O)O/N=C/c1c(N2CCOCC2)n(C)c2ccccc12", 58.8],
  ["COc1ccccc1NC(=O)c1ccc(NC(=O)CSc2nnnn2C)cc1", -1.96],
  ["CS(=O)(=O)N1CCN(c2ccc(NC(=O)CSc3nnc(-c4ccco4)o3)cc2)CC1", -2.76],
  ["COc1ccc(/C=C/c2cc(-c3ccc(C)cc3)o[n+]2C)cc1", 83.6],
  ["COc1cc(C(=O)NC2CCN(C)CC2)ccc1Nc1ncc2c(n1)N(CCc1ccccc1)CCC(=O)N2C", -166],
  ["Cc1cccc(-n2c3nc(=O)[nH]c(=O)c-3cc3cc([N+](=O)[O-])ccc32)c1", 27.6],
  ["COc1ccc(C2=Nn3c(nnc3-c3ccccc3F)SC2)cc1OC1CCOC1 (configuration not stated)", -40.3],
  ["Cc1nc2ccc(NC(=O)c3cccs3)cc2c(=O)n1Cc1ccc(Cl)cc1", 40.8],
  ["COc1ccc(CCNC(=O)COC(=O)C23CC4CC(CC(Br)(C4)C2)C3)cc1", 4.71],
  ["CCCCCCCCCn1c2c(c(=N)c3c1CCC3)CCCC2", 94.6],
  ["O=C(Cc1c(Cl)cccc1Cl)Nc1ccncc1", -10],
  ["CCCn1c(NC(=O)c2ccc([N+](=O)[O-])o2)nc2ccccc21", -2.27],
  ["CCCCC[n+]1cccc2c3ccccc3ccc21", 77],
  ["C#CCSc1nsc(SCC#C)c1C#N", -20],
  ["O=[N+]([O-])c1ccc(N2CCN(S(=O)(=O)c3ccccc3)CC2)cc1NCc1cccnc1", 14.6],
  ["CC(C)(Oc1ccc(Cl)cc1)C(=O)OCC(=O)NCCc1ccccc1", 4.06],
  ["CCCCCOc1ccc(Br)cc1CSC(=N)N", 84],
  ["COC(=O)c1cc2occc2n1CC(=O)Nc1ccc(C)cc1C", 1.15],
  ["Cc1cccc(NC(=O)CSC2=NN3CCCC(=O)N=C3S2)c1C", -5.97],
  ["CCCCNc1cc(C)nc(NCc2ccccc2)n1", 50.8],
  ["COc1ccc(NC(=O)COC(=O)Cc2c[nH]c3ccccc23)cc1Cl", -6.87],
  ["Cc1cc(OCC(=O)NCc2cccnc2)c2c(C)c(C)c(=O)oc2c1", -8.94],
  ["Nc1nc(N)nc(-c2cc(O)ccc2O)n1", 57.1],
  ["COc1cccc(-c2cc(C(=O)Nc3ccncc3)c3ccccc3n2)c1", -5.71],
  ["CCOc1ccc(NC(=O)COC(=O)COc2cccc3c2OC(C)(C)C3)cc1", -1.47],
  ["C/C(=N\\Nc1nc(C)c(C)s1)c1ccc([N+](=O)[O-])cc1", -2.81],
  ["CC(=O)Nc1cccc(C(=O)OCC(=O)N2CCN(C(=O)COC(=O)c3cccc(NC(C)=O)c3)CC2)c1", -10.3],
  ["Cc1cccc2cc(C#N)c(SCC(=O)N3CC(=O)Nc4ccccc43)nc12", 38.5],
  ["O=C(Nc1cc(Cl)ccc1-n1cncn1)c1ccc([N+](=O)[O-])s1", -10.3],
  ["O=C(c1cc(-c2ccco2)nc2ccccc12)N(Cc1nnc(-c2ccc(Cl)cc2)o1)C1CC1", -2.77]
]}
